Target: T1, Anti-CD28 Fab (SEQ ID NOs: 696, 697)
T1 construct: Biotinylated and captured on neutravidin coated plates in the phage ELISA
T1 sequence (VH, as listed by the source, chain 1 of 2): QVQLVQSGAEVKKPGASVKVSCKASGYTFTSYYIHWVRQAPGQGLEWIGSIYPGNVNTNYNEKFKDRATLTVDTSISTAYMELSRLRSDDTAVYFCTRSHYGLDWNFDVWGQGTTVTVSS
T1 sequence (VL, as listed by the source, chain 2 of 2): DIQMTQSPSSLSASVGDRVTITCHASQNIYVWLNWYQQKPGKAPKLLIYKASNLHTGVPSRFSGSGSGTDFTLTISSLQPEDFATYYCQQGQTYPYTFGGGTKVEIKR
Experiment: phage binding ELISA on captured Fab; competitor: CD28 antigen pre-incubated in the wells
Provide the reported Anti-CD28 Fab signal in the presence of CD28 (phage binding ELISA) of each item.
In your answer, state the number alone without any accompanying words.

Prompt line: Name the recorded Anti-CD28 Fab signal in the presence of CD28 (phage binding ELISA) for YCDGHHKEYLLKCL (tested as crude clonal phage supernatant) [Phage-1018 (Peptide-87 library peptide, SEQ ID NO: 1334)] .
Response line: 0.06

Prompt line: Name the recorded Anti-CD28 Fab signal in the presence of CD28 (phage binding ELISA) for YCDGHLPIYQAKCL (tested as crude clonal phage supernatant) [Phage-1021 (Peptide-87 library peptide, SEQ ID NO: 1337)] .
Response line: 0.1

Prompt line: Name the recorded Anti-CD28 Fab signal in the presence of CD28 (phage binding ELISA) for YCDGHLALHMKKCL (tested as crude clonal phage supernatant) [Phage-1019 (Peptide-87 library peptide, SEQ ID NO: 1335)] .
Response line: 0.08

Prompt line: Name the recorded Anti-CD28 Fab signal in the presence of CD28 (phage binding ELISA) for YCDGHKAEYMQKCL (tested as crude clonal phage supernatant) [Phage-1015 (Peptide-87 library peptide, SEQ ID NO: 1331)] .
Response line: 0.06

Prompt line: Name the recorded Anti-CD28 Fab signal in the presence of CD28 (phage binding ELISA) for YCSGHLPQYLEKCL (tested as crude clonal phage supernatant) [Phage-1017 (Peptide-87 library peptide, SEQ ID NO: 1333)] .
Response line: 0.31

Hello, the source for this data is patent US20260242478A1, in case you need it.
